assay: chemical genetic growth profiling, strain panel (AID 1159580);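 further: tested at 20 µM; growth read once vehicle control cultures reached saturation at 30 °C; 1 = growth at the plate median or of vehicle wells; lower values mean less growth of the strain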; conditions: S. cerevisiae deletion strains, growth OD, locus YLL041C, strain sdh2, active compounds read low
Among all 5,500 compounds or so, about 2,000 (36%) were called active. Inconclusive results (about 18%) are left out. The list shows a part of the results.
measured-quantity: normalized growth

Past entries and their recorded results:
## Input I am curious: what normalized growth value has been reported for N#CC(O[C@@H]1O[C@H](CO[C@@H]2O[C@H](CO)[C@@H](O)[C@H](O)[C@H]2O)[C@@H](O)[C@H](O)[C@H]1O)c1ccccc1 (stereo partly specified) ?
## Output 0.991 (inactive)

## Input Same for Cc1ccc(N=CN(C)C=Nc2ccc(C)cc2C)c(C)c1
## Output 0.98 (inactive)

## Input And for CC(=O)NCc1c(I)c(NC(C)=O)c(I)c(C(=O)O)c1I ?
## Output 0.995 (inactive)

## Input Another molecule to check: C[C@@H]1CC[C@H]2[C@@H](C)C(=O)O[C@@H]3O[C@@]4(C)CC[C@@H]1[C@]32OO4
## Output 0.946 (inactive)

## Input Also need CC(C)(Sc1cc(C(C)(C)C)c(O)c(C(C)(C)C)c1)Sc1cc(C(C)(C)C)c(O)c(C(C)(C)C)c1 , thanks.
## Output 1.01 (inactive)

New cases:
## Input Which value of normalized growth has been reported for COC(=O)Nc1nc2ccc(C(=O)c3ccccc3)cc2[nH]1 in the records?
## Output 0.984 (inactive)

## Input Queued: COC(=O)Nc1nc2ccc(S(=O)c3ccccc3)cc2[nH]1 (stereo unspecified)
## Output 0.99 (inactive)

## Input Subsequent entry: COc1ccc2[nH]cc(CCN)c2c1
## Output 0.991 (inactive)

## Input Please do the same for Cc1cc(C(C)(C)C)c(O)c(C(C)(C)C)c1 as well.
## Output 0.978 (inactive)

----------
Each entry below carries its reported normalized growth.
assay: chemical genetic growth profiling, strain panel (AID 1159580);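 further: tested at 20 µM; growth read once vehicle control cultures reached saturation at 30 °C; 1 = growth at the plate median or of vehicle wells; lower values mean less growth of the strain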; conditions: S. cerevisiae deletion strains, growth OD, locus YGR229C, strain SMI1, active compounds read low
Hit rate of the full screen: of about 5,500 compounds, about 2,000 (36%) were called active. Inconclusive results (about 18%) are left out. This is one part of the list. Where a SMILES comes first, the peptide text is derived from it. The star is where a group is joined. For = O=C*
# print the numeric value only

Field: example entries. Status: answers known.
## Input If you can, please state the reported normalized growth value of CSCCC(NC=O)C(=O)NC(Cc1ccccc1)C(=O)O (stereo not drawn) (For-Met-Phe-OH; configuration not given here) .
## Output 1.02

## Input Next: CNC(=O)Oc1ccc2c(c1)C1(C)CCN(C)C1N2C (centres undefined)
## Output 0.977

## Input Input CCOC(=O)c1nc(-c2ccccc2)sc1C(=O)OCC
## Output 0.958

## Input How about O=C(O)C1CCCN(CCC=C(c2ccccc2)c2ccccc2)C1 (centres undefined) ?
## Output 1.04

## Input Entry COc1ccc2c(c1)c(CC(=O)OCC(=O)O)c(C)n2C(=O)c1ccc(Cl)cc1 please
## Output 1.02

Now look at this one.
## Input Would you mind telling me what normalized growth value was observed for Nc1c2ccccc2nc2ccccc12 (tested in a mixture with another compound) ?
## Output 0.68
